Taken from the supplement of paper PMC11061612.

System: SR (Other Blood Carcinomas)
Experiment: Bliss excess, mean over the matrix (fraction); higher = more synergy;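 further: after 72 h of two-drug dosing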
property_measured: Bliss excess
Form field (numeric): enter value without unit.

Fill blank: measured Bliss excess of the compound NC1(C(=O)N[C@@H](CCO)c2ccc(Cl)cc2)CCN(c2ncnc3[nH]ccc23)CC1 [Capivasertib] + CC(C)n1c(=O)n(C)c2cnc3cc(F)c(-c4ccc(OCCCN5CCCCC5)nc4)cc3c21 [AZD1390] (first compound max 10 µM, 7x7, partner max 0.3 µM) is ____.
-0.0452

Fill blank: measured Bliss excess of the compound C=CCn1c(=O)c2cnc(Nc3ccc(N4CCN(C)CC4)cc3)nc2n1-c1cccc(C(C)(C)O)n1 [AZD1775] + C[C@@H]1COCCN1C2=NC(=NC(=C2)C3(CC3)[S@](=N)(=O)C)C4=C5C=CNC5=NC=C4 [AZD6738] (first compound max 1 µM, partner max 10 µM) is ____.
0.0174

Fill blank: measured Bliss excess of the compound CC1(C)CCC(CN2CCN(c3ccc(C(=O)NS(=O)(=O)c4ccc(NCC5CCOCC5)c([N+](=O)[O-])c4)c(Oc4cnc5[nH]ccc5c4)c3)CC2)=C(c2ccc(Cl)cc2)C1 [Venetoclax] + CS(=O)(=O)CCNCc1ccc(-c2ccc3ncnc(Nc4ccc(OCc5cccc(F)c5)c(Cl)c4)c3c2)o1 [Lapatinib] (first compound max 1 µM, 7x7, partner max 10 µM) is ____.
0.0557

Fill blank: measured Bliss excess of the compound O=C(c1cc(Cc2n[nH]c(=O)c3ccccc23)ccc1F)N1CCN(C(=O)C2CC2)CC1 [Olaparib] + COc1nnc2ccc(N3CCC(c4ccc(OCCN5CCN(C)C(=O)[C@H]5C)cc4)CC3)nn12 [AZD5153] (first compound max 10 µM, 7x7, partner max 1 µM) is ____.
0.0315

Fill blank: measured Bliss excess of the compound Cc1c2c(nn1C)CSCc1cc(n(C)n1)CSc1cc(c3ccccc3c1)OCCCc1c(C(=O)O)n(C)c3c-2c(Cl)ccc13 [AZD5991] + C=CCn1c(=O)c2cnc(Nc3ccc(N4CCN(C)CC4)cc3)nc2n1-c1cccc(C(C)(C)O)n1 [AZD1775] (first compound max 1 µM, partner max 1 µM) is ____.
-0.045

Fill blank: measured Bliss excess of the compound CC1(C)CCC(CN2CCN(c3ccc(C(=O)NS(=O)(=O)c4ccc(NCC5CCOCC5)c([N+](=O)[O-])c4)c(Oc4cnc5[nH]ccc5c4)c3)CC2)=C(c2ccc(Cl)cc2)C1 [Venetoclax] + Cn1cnc2c(F)c(Nc3ccc(Br)cc3Cl)c(C(=O)NOCCO)cc21 [Selumetinib] (first compound max 1 µM, 7x7, partner max 3 µM) is ____.
0.0026

Fill blank: measured Bliss excess of the compound CCN(CCO)CCCOc1ccc2c(Nc3cc(CC(=O)Nc4cccc(F)c4)[nH]n3)ncnc2c1 [AZD2811] + C=CCn1c(=O)c2cnc(Nc3ccc(N4CCN(C)CC4)cc3)nc2n1-c1cccc(C(C)(C)O)n1 [AZD1775] (first compound max 1 µM, partner max 1 µM) is ____.
-0.0146

Fill blank: measured Bliss excess of the compound CC(=O)c1c(C)c2cnc(Nc3ccc(N4CCNCC4)cn3)nc2n(C2CCCC2)c1=O [Palbociclib] + Cn1cnc2c(F)c(Nc3ccc(Br)cc3Cl)c(C(=O)NOCCO)cc21 [Selumetinib] (first compound max 10 µM, 7x7, partner max 10 µM) is ____.
0.0352

Fill blank: measured Bliss excess of the compound Cc1c2c(nn1C)CSCc1cc(n(C)n1)CSc1cc(c3ccccc3c1)OCCCc1c(C(=O)O)n(C)c3c-2c(Cl)ccc13 [AZD5991] + C1CN(CCC1(C(=O)N[C@@H](CCO)C2=CC=C(C=C2)Cl)N)C3=NC=NC4=C3C=CN4 [Capivasertib] (first compound max 1 µM, 7x7, partner max 3 µM) is ____.
0.0447

Fill blank: measured Bliss excess of the compound CCN(CCO)CCCOc1ccc2c(Nc3cc(CC(=O)Nc4cccc(F)c4)[nH]n3)ncnc2c1 [AZD2811] + O=C(c1cc(Cc2n[nH]c(=O)c3ccccc23)ccc1F)N1CCN(C(=O)C2CC2)CC1 [Olaparib] (first compound max 1 µM, 7x7, partner max 10 µM) is ____.
-0.0064

Fill blank: measured Bliss excess of the compound CC1(C)CCC(CN2CCN(c3ccc(C(=O)NS(=O)(=O)c4ccc(NCC5CCOCC5)c([N+](=O)[O-])c4)c(Oc4cnc5[nH]ccc5c4)c3)CC2)=C(c2ccc(Cl)cc2)C1 [Venetoclax] + C[C@@H](Nc1cc(F)cc(F)c1)c1cc(C(=O)N(C)C)cc2c(=O)cc(N3CCOCC3)oc12 [AZD8186] (first compound max 1 µM, 7x7, partner max 3 µM) is ____.
-0.027

Fill blank: measured Bliss excess of the compound Cc1c2c(nn1C)CSCc1cc(n(C)n1)CSc1cc(c3ccccc3c1)OCCCc1c(C(=O)O)n(C)c3c-2c(Cl)ccc13 [AZD5991] + Nc1ccn([C@@H]2O[C@H](CO)[C@@H](O)C2(F)F)c(=O)n1 [Gemcitabine] (first compound max 1 µM, 7x7, partner max 0.3 µM) is ____.
0.0073
